src = PubChem BioAssay (Tox21)

# assayInfo: qHTS RealTime-Glo MT Cell Viability Assay in HepG2 cells - 40 hour (AID 1224870); also: nearly all actives have a fitted effect of over 50% in size
# conditionSummary: RealTime-Glo luminescence; series mostly up to 76.8 µM
# Description: National Center for Advancing Translational Sciences [NCATS] NIH Chemical Genomics Center [NCGC] U.S. Environmental Protection Agency [EPA] National Institutes of Environmental Health Sciences [NIEHS] National Toxicology Program [NTP] U.S. Food and Drug Administration [FDA] Measure of cell viability is critical in the cell-base assay. Analysis of cell viability is necessary for the characterization of cell responses to cytotoxic drugs and environmental stress. […]
Results filed as inconclusive are left out. Calls of active or inactive are those of the source. Calls follow the shape of the dose curve; as a rule, active = well fitted cell-killing curve with a large enough effect in the repeat runs; inconclusive = weak or mixed curves, or effect the other way; inactive = flat fitted curve, though single readings scatter.
API: response.call in 1 for active, -1 for inactive

[F][Sn]([c]1ccccc1)([c]1ccccc1)[c]1ccccc1    1
Oc1ccc2[nH]cc(CCCCN3CC=C(c4ccccc4)CC3)c2c1    -1
CN    -1

-- ask Called result for c1cc[n+]2c(c1)-c1cccc[n+]1CC2
-- reply -1

-- ask // repeat for CNC(C)(C)Cc1ccccc1 and report
-- reply -1

-- ask // query: O=S(=O)(O)F
-- reply -1

-- ask Clc1cc(Cl)c(-c2cc(Cl)c(Cl)cc2Cl)cc1Cl ?
-- reply -1

----------
# assayInfo: qHTS RealTime-Glo MT Cell Viability Assay in HEK293 cells - 40 hour (AID 1224874); also: % is scaled to controls: 0 for no effect and ±100 for the full control effect; nearly all actives have a fitted effect of over 50% in size
# conditionSummary: RealTime-Glo luminescence; stronger effect = lower value
Results filed as inconclusive are left out.
reportedProperty: max response (%)
Write it as a number; the unit % goes unstated.

# count of solved cases: 8
Cc1cnc2c(C(=O)O)c(Cl)ccc2c1    3.08
O=[N+]([O-])c1ccc(Cl)c(Cl)c1Cl    -8.94
COc1ccc2c3c1O[C@H]1[C@H](O)CC[C@H]4[C@@H](C2)N(C)CC[C@@]341    -1.3
CCCN    -0.242
CCOP(=O)(OCC)Oc1cc(C)nc(C(C)C)n1    1.52
ClC1=C(Cl)[C@]2(Cl)[C@@H]3[C@H]4C[C@H]([C@@H]5O[C@H]45)[C@@H]3[C@@]1(Cl)C2(Cl)Cl    3.07
C[C@]12CC[C@H]3[C@@H](CCC4=CC(=O)CC[C@@H]43)[C@@H]1CC[C@@H]2OC(=O)CCc1ccco1    -8.1
N#Cc1ccc(N(CC(N)=O)CC(F)(F)F)cc1C(F)(F)F    0.171

-- ask What value of measured max response is listed for C=CCOC(=O)c1ccccc1N ?
-- reply -17.8

-- ask Could you do the same for N#Cc1c2ccccc2cc2ccccc12 , please?
-- reply -9.07

-- ask Can you check O=C(N[C@@H]1N=C(c2ccccc2F)c2cccc3c2N(CC3)C1=O)c1cc2ccccc2[nH]1 next?
-- reply -2.71

-- ask What do you get for CC(C)Br ?
-- reply -13.8

-- ask Then this compound: CC1CN1 (stereo not drawn)
-- reply 6.11

----------
# experimentalTarget: Cytochrome P450 3A4 (Homo sapiens)
# assayInfo: Cytochrome P450 Family 3 Subfamily A Member 4 (CYP3A4) small molecule antagonists: luciferase reporter qHTS assay (AID 1671201); also: nearly all actives have a fitted effect of over 50% in size
# conditionSummary: P450-Glo CYP3A4 enzyme, luciferin luminescence, 1 h; series mostly up to 115 µM
Records with an inconclusive call do not appear. Active and inactive are the calls of the source. The call rests on the fitted dose curve; in most records, active means well fitted inhibition curve with a large enough effect in the repeat runs; inconclusive means weak or mixed curves; inactive means no such curve, though single readings can be large or run the other way.
// allowed return values: yes for active, no for inactive

CNC(=O)O/N=C(\C)C(C)S(C)(=O)=O (centres undefined)    no
O=c1[nH]c(Cl)c(Cl)cc1Cl    no
CC(C)Br    no
C#CCO    no
C=CCOC(=O)c1ccccc1N    yes

-- ask Fill in: this test's call for c1ccc(Nc2ccc(Nc3ccccc3)cc2)cc1 is ___
-- reply yes

-- ask Same thing, different compound: CC(C)c1c(CN(C)C(C)Cc2ccccc2)n(C)n(-c2ccccc2)c1=O (centres undefined)
-- reply yes

-- ask Next entry: CN=C=O
-- reply no

-- ask Try this compound too: O=C(O)CCCCCCNC1c2ccccc2CCc2ccccc21
-- reply no

-- ask Would you kindly repeat that for ClSC(Cl)(Cl)Cl ?
-- reply no

-- ask Would you mind doing C#CC1(O)CCCCC1 as well?
-- reply no

-- ask What do you have for CCOP(=O)(Sc1ccccc1)Sc1ccccc1 ?
-- reply no

-- ask Now this one: CCCCCCC[CH2][Sn]([Cl])([Cl])[CH2]CCCCCCC
-- reply no

-- ask Please answer likewise for COP(=S)(OC)Oc1nc(Cl)c(Cl)cc1Cl
-- reply yes
